Catalogue of Vd readings, one per entry.
- EXPERIMENT_SUMMARY: Pharmacokinetic experiments in CD-1 mice
- Assay type: in vivo
- SETTINGS: male, mouse, plasma, 1 mg/kg Intravenous Injection, read-out: Vss
METRIC: Vd (L/kg)

[[record]]
compound = "COc1cc2ncnc(Nc3ccc(F)c(Cl)c3)c2cc1NC(=O)/C=C/CN(C)Cc1ccccc1"
reading = 14.7

[[record]]
compound = "CN(C)C/C=C/C(=O)Nc1cc2c(Nc3ccc(F)c(Cl)c3)ncnc2cc1OC(F)F"
reading = 18.9

[[record]]
compound = "CN(C/C=C/C(=O)Nc1cc2c(Nc3ccc(F)c(Cl)c3)ncnc2cc1OC1CCOC1)Cc1ccccc1 (stereo not drawn)"
reading = 5.47


###

- EXPERIMENT_SUMMARY: Pharmacokinetic experiments in CD-1 mice
- Type: in vivo
- SETTINGS: male, mouse, plasma, 5 mg/kg Oral Administration
Listed compounds paired with reported Cmax
METRIC: Cmax (ng/mL)

[[record]]
compound = "COc1cc2ncnc(Nc3ccc(F)c(Cl)c3)c2cc1NC(=O)/C=C/CN(C)Cc1ccccc1 [Compound Ic]"
metric = "Cmax"
reading = 66.7

[[record]]
compound = "CN(C/C=C/C(=O)Nc1cc2c(Nc3ccc(F)c(Cl)c3)ncnc2cc1OC1CCOC1)Cc1ccccc1 (stereo not drawn) [Compound Ia]"
metric = "Cmax"
reading = 31.4

[[record]]
compound = "CN(C)C/C=C/C(=O)Nc1cc2c(Nc3ccc(F)c(Cl)c3)ncnc2cc1OC(F)F [Compound Ie]"
metric = "Cmax"
reading = 92.3


###

Known half-life of a selection of molecules
- EXPERIMENT_SUMMARY: Pharmacokinetic experiments in CD-1 mice
- Format: in vivo
- SETTINGS: male, mouse, plasma, 5 mg/kg Oral Administration, read-out: Terminal t1/2 (converted)
METRIC: half-life (h)

[[record]]
molecule = "CN(C/C=C/C(=O)Nc1cc2c(Nc3ccc(F)c(Cl)c3)ncnc2cc1OC1CCOC1)Cc1ccccc1 (centres unmarked)"
metric = "half-life"
reading = 1.76

[[record]]
molecule = "CN(C)C/C=C/C(=O)Nc1cc2c(Nc3ccc(F)c(Cl)c3)ncnc2cc1OC(F)F"
metric = "half-life"
reading = 7.11


###

- MEASURED_ON: EGFR^L858R/T790M (Homo sapiens, UniProt P00533, L858R/T790M)
- Sequence (P00533 25-1210 T790M/L858R): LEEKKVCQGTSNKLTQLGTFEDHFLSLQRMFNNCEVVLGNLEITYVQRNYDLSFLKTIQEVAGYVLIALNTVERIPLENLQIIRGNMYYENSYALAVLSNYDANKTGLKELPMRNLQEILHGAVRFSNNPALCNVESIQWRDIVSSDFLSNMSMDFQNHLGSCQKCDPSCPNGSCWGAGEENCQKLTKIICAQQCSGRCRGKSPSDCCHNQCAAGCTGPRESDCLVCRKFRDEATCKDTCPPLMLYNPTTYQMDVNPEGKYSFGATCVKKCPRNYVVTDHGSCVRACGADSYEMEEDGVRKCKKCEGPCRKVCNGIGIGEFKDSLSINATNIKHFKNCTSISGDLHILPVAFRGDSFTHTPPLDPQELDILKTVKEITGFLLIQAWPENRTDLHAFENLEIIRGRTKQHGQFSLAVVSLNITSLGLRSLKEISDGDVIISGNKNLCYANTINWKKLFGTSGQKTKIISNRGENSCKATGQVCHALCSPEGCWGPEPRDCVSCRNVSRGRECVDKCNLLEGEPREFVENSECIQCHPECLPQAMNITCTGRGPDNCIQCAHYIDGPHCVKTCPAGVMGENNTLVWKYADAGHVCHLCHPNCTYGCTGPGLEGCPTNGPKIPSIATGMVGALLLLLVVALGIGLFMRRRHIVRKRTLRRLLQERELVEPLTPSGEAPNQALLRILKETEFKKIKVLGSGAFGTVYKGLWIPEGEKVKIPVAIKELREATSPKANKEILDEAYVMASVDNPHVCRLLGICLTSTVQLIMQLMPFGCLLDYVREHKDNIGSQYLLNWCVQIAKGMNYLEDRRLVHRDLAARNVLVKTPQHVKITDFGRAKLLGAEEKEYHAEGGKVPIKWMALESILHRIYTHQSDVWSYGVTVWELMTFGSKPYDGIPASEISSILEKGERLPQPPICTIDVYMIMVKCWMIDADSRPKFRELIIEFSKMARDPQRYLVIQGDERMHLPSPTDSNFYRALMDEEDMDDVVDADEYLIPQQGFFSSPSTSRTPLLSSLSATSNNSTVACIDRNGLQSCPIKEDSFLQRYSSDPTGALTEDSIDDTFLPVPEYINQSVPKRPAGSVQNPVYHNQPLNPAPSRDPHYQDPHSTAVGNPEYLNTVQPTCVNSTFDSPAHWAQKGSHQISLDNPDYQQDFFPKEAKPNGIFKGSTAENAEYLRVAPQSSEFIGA
- EXPERIMENT_SUMMARY: Caliper Mobility Shift Assay, double mutant EGFR kinase
- Assay type: biochemical
- SETTINGS: read-out: Inhibition of Kinase Activity (IC50, nM) EGFR^L858R/T790M
METRIC: IC50 (nM)

[[record]]
input_smiles = "CN(C)C/C=C/C(=O)Nc1cc2c(Nc3ccc(F)c(Cl)c3)ncnc2cc1OC(F)F"
metric = "IC50"
unit_text = "nM"
reading = 11


###

- Test system: A549
- EXPERIMENT_SUMMARY: Inhibition of tumor cells, MTS method
- Format: cell-based
- SETTINGS: Homo sapiens, 72 hours
METRIC: IC50 (µM)

[[record]]
compound = "CN(C)C/C=C/C(=O)Nc1cc2c(Nc3ccc(F)c(Cl)c3)ncnc2cc1OC(F)F"
metric = "IC50"
relation = "="
reading = 3.72

[[record]]
compound = "CN(C/C=C/C(=O)Nc1cc2c(Nc3ccc(F)c(Cl)c3)ncnc2cc1OC1CCOC1)Cc1ccccc1 (stereo not drawn)"
metric = "IC50"
relation = "="
reading = 5.93

[[record]]
compound = "COc1cc2ncnc(Nc3ccc(F)c(Cl)c3)c2cc1NC(=O)/C=C/CN(C)Cc1ccccc1"
metric = "IC50"
relation = ">"
reading = 10

